method_description: Plasma pharmacokinetics of repeat-dose intravenous micafungin in young infants
Type: in vivo, human
condition_description: human, plasma, iv, 7 mg/kg/day, CLss, mean (SD), 7 mg/kg/day, IV, day 4, infants ≥ 1,000 g, n=6; dose/AUC0–24; SD
*1 amine or outer side, *2 acyl side, *3 side chain or, on linkers, in order; H or OH if unused. Where a SMILES comes first, the peptide text is derived from it. Bridges are numbered along the chain shown (N, C = ends). [ ]: non-standard residue; d: D form. The star is where a group is joined. hTyr(3S-OH,4S-OH,3'-OSO3H) = N[C@H](C(=O)O)[C@H](O)[C@@H](O)c1ccc(O)c(OS(=O)(=O)O)c1; Orn(4R-OH,5R-OH) = O=C([C@H](C[C@@H](O)[C@@H](O)N[*:3])N[*:1])[*:2]; Pro(3S-OH,4S-Me) = C[C@H]1CN[C@H](C(=O)O)[C@H]1O; X1 = CCCCCOc1ccc(-c2cc(-c3ccc(C(=O)*)cc3)no2)cc1; Gln(3R-OH) = NC(=O)C[C@@H](O)[C@H](N)C(=O)O; Hyp = O=C(O)[C@@H]1C[C@@H](O)CN1
measurement_label: clearance (mL/min)
Report the value in mL/min with no unit label.

stdin: Give the measured clearance for CCCCCOc1ccc(-c2cc(-c3ccc(C(=O)N[C@H]4C[C@@H](O)[C@@H](O)NC(=O)[C@@H]5[C@@H](O)[C@@H](C)CN5C(=O)[C@H]([C@H](O)CC(N)=O)NC(=O)[C@H]([C@H](O)[C@@H](O)c5ccc(O)c(OS(=O)(=O)O)c5)NC(=O)[C@@H]5C[C@@H](O)CN5C(=O)[C@H]([C@@H](C)O)NC4=O)cc3)no2)cc1 [micafungin] (X1-[Orn(4R-OH,5R-OH)]T[Hyp][hTyr(3S-OH,4S-OH,3'-OSO3H)][Gln(3R-OH)][Pro(3S-OH,4S-Me)]; lactam 1-C)
stdout: 0.9

// provenance: paper PMC2824925
